All figures here come from ChEMBL document CHEMBL3433997.

biological target: Glucose transporter (Leishmania mexicana) (UniProt O61059); test: ST_JUDE_LEISH: Cytotoxicity at 2uM final concentration against transgenic Leishmania Mexicana promastigotes LmGT2 that are glucose transport deficient and complemented with the L. Mexicana glucose transporter 2. Activity is measured by DNA content using SYBR green in vitro; assay type: functional
Field: inhibition. Provide a value for each of the molecules that follow.
Answers are plain numbers, in %.

Consider the reported inhibition for these molecules:
# molecule, inhibition (%)
measured = [
    ("Cc1ccc(-n2cc(CNCC3CCN(CCO)CC3)c(-c3ccc(F)cc3)n2)cc1", 28.2),
    ("CCOc1c(OC)ccc2c1CCN(CCN1CCC(CNC(=O)c3ccc(-c4ccc(C(F)(F)F)cc4)cc3)CC1)C2", 0.24),
]

# map each molecule to its inhibition
1. Cc1ccc(NC(=O)c2ccc3ncccc3c2)cc1OC1CCN(CCC(C)C)C1 (centres undefined)
2. COc1ccc(CCN(C)CCCCc2ccc(NC(=O)c3cccc4c(=O)c5cc(F)ccc5sc34)cc2)cc1OC
3. CN1CCCC(CN2CCN(Cc3cccc(-c4ccc(-c5nc6cc(F)ccc6[nH]5)cc4)c3)CC2)C1 (centres undefined)
4. CSc1sc(NC(=O)Nc2cccc(C(F)(F)F)c2)cc1C#N
5. CCCCCCCC1CC(CC(=O)Nc2ccnc3ccc(OC)cc23)CN1C(=O)OC(C)(C)C (centres undefined)

RESULT:
3.54
2.03
1.35
1.15
3.12

Batch lookup, inhibition per entry.
1. CN(C)c1ccc(N2C(N)=NC(N)=NC23CCCC3)cc1
2. CN1CCCN(c2ccnc3cc4c(cc23)N(C(=O)c2ccc(Cl)cc2)CC4)CC1

RESULT:
[-3.85, 16.1]

====

molecular target: Glucose transporter (Leishmania mexicana); assay: ST_JUDE_LEISH: Cytotoxicity at 2uM final concentration against transgenic Leishmania Mexicana promastigotes LmGT2 that are glucose transport deficient and complemented with the L. Mexicana glucose transporter 2. Activity is measured by DNA content using SYBR green in vitro; assay type: functional
reportedEndpoint: inhibition (%)
One number for each entry, in %.

Before answering, review these 5 worked examples.
# molecule, reportedEndpoint, unitAbbrev, numericReadout
data = [
    ("O=C(Nc1cccc(Cl)c1Cl)N[C@H]1CCN(CCCCCNC(=O)C2CC2c2ccc(Cl)c(Cl)c2)C1 (stereo not given in full)", "inhibition", "%", 1.19),
    ("CC1(C)N=C(N)N=C(N)N1OCc1cccc(C#N)c1", "inhibition", "%", 1.5),
    ("CC(C)CCN1CCC(Oc2ccc(NC(=O)c3ccccc3)cc2Cl)CC1", "inhibition", "%", 2.86),
    ("CCOC(=O)c1ccc(NC(=O)N(Cc2ccc(-c3ccc(CN4CCNCC4)cc3)cc2)C2CCN(Cc3ccccc3)CC2)cc1", "inhibition", "%", -1.08),
    ("Cc1ccc(CN2CCCN(Cc3cccc(NC(=O)c4ccc(Cl)c(Cl)c4)c3)CC2)cc1", "inhibition", "%", -0.82),
]

Dear colleague, could you send me inhibition for each of the items below? Thanks.
1. CCCCNC(=O)[C@H](Cc1ccccc1)NC(=O)c1ccc(O)c(-c2ccc(Cl)c(Cl)c2)c1
2. Oc1cc(-c2cccc(C(F)(F)F)c2)nc(Nc2ccc(Cl)c(Cl)c2)n1

RESULT:
3.71
0.9

Batch of 6 molecules: report inhibition for each.
1. COc1ccc(NC(=O)c2ccc(NC(=O)c3ccc(Cl)cc3)cc2)cc1N1CCN(C)CC1
2. Cc1nc(-c2nc(N3CCOCC3)ncc2-c2ccsc2)sc1C
3. CN(C)CCOc1cc(NC(=O)Nc2ccc(-c3ccncc3)c(C(F)(F)F)c2)ccc1Cl
4. CCOc1ccc(C(=O)Nc2cc(Br)c3c(c2)CNCC3)cc1Br
5. COc1ccc2nccc([C@@H](O)CN3CCC(NC(=O)C(c4cc5ccccc5o4)N4CCN(c5ccc(F)cc5)CC4)CC3)c2c1 (stereo not given in full)
6. Oc1ccc(CCNc2nc(NCc3ccccc3-c3ccccc3)nc(N3CCCNCC3)n2)cc1

RESULT:
1. 3.5
2. 1.4
3. 9.08
4. 6.15
5. 0.13
6. 0.48

List the reported inhibition of each molecule below.
1. CC1CN(C(=O)c2sc3ccccc3c2Cl)CC(C)O1 (stereo not given)
2. Cc1nnsc1C(=O)Nc1cccc(-c2ccc(-c3nc4cccc(C)c4[nH]3)s2)c1

RESULT:
1: 0.74; 2: 3.82

Look up inhibition for the entries below, preserving their order.
1. CN1CCN(CCNc2c3ccccc3nc3ccc4ccccc4c23)CC1
2. CCCCOc1c(CCC)cc(Cc2cnc(N)nc2N)cc1CCC
3. C#CC[C@@H](NC(N)=O)C(=O)O
4. Cc1cccc2nc(-c3ccc(-c4cccc(NC(=O)Nc5ccc(Cl)c(Cl)c5)c4)s3)[nH]c12

RESULT:
[12.5, -0.35, 0.41, 0.38]

QUERY: Name the reported inhibition value associated with the molecule COc1cccc(-c2cccc(CNC3CCN(CC4Cn5c(=O)ccc6ccc(F)c4c65)CC3)c2)c1 (stereo not given)
RESULT: 1.71
